Data origin: patent US20260242735A1

# Target Desc: human CD33 P174A (human, UniProt P20138 18-364)
# Sequence (P20138 18-364 P174A limits assumed): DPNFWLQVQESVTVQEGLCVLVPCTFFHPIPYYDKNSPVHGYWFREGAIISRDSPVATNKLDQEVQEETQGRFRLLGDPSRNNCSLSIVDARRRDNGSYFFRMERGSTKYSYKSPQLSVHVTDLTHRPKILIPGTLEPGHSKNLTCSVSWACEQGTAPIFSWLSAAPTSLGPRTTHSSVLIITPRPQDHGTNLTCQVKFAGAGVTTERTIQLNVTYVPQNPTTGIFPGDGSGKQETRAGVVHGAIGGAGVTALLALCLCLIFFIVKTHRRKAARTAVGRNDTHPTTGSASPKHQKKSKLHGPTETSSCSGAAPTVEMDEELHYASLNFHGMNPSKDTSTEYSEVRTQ
# Assay Info: alanine scan, flow cytometry, HEK293-T;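 also: antibody binding to each alanine-substituted CD33 mutant expressed transiently in HEK293-T, read as fluorescence minus background, mean of duplicates, relative to wild-type CD33 set as 100%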
Measured Quantity: Mean % WT Binding (%)
Give bare numbers, in %.

Q) Please list Mean % WT Binding recorded for the binder Refmab #1 (antibody, V domains shown, In the alanine scan antibodies were used as IgG or Fab; also called hP67.6) VH: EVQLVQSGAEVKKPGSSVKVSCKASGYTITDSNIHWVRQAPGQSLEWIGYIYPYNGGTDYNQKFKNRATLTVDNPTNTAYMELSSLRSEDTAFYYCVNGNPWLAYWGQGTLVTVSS VL: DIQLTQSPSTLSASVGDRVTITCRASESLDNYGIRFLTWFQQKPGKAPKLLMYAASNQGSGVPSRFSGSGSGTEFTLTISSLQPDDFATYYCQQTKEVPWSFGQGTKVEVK
A) 90.9
